System: MDA-MB-231 breast
Experiment: NCI tumour cell line growth inhibition, 48 h
Please respond with reported TGI for every item in the list.

Req: Record request: TGI value, item COc1ccc(CCN(CC(=O)N(CC(N)=O)C2CCC[C@@H]2OCc2ccccc2)C(=O)CN(C(=O)CN(CCc2ccc(Cl)cc2)C(=O)CN(C(=O)CN(C)Cc2ccccc2F)[C@H](C)C2CCCCC2)[C@H](C)C2CCCCC2)cc1OC (stereo not given in full)
Resp: > 50 µM

Req: Record request: TGI value, item CC(=O)OCC1OC(c2c(OC(C)=O)cc(C)c3c(=O)cc(/C(C(C)=O)=C(\C)O)oc23)C(OC(C)=O)C(OC(C)=O)C1OC(C)=O (stereo not given)
Resp: > 100 µM

Req: Record request: TGI value, item O/N=C(/CC(O)(C(F)(F)F)C(F)(F)F)c1ccccc1
Resp: > 10 µM

Req: Record request: TGI value, item CCOC(=O)C(NC(C)=O)(Nc1ccc(S(N)(=O)=O)cc1)C(F)(F)F (stereo not given)
Resp: > 100 µM

Req: Record request: TGI value, item O=C(O)c1ccc(C(O)(c2ccccc2)c2ccccc2)cc1
Resp: > 100 µM

Req: Record request: TGI value, item COc1cc(-c2nc3sc(C)cn3c2/C=C2\C(=O)Nc3ccccc32)c(Br)c(OC)c1OC
Resp: 97 µM

Req: Record request: TGI value, item O=S1(=O)c2ccccc2C(Nc2ccccc2)N1c1ccccc1 (stereo not given)
Resp: > 100 µM

Req: Record request: TGI value, item O=C1C2CCCCC2C(=O)N1n1c(-c2ccccc2)n[nH]c1=O (stereo not given)
Resp: > 100 µM

Req: Record request: TGI value, item CCOC(=O)CC1(Cc2ccc(OCc3ccccc3)cc2)C(=O)OC(c2ccccc2)N1C(=O)c1ccccc1 (stereo not given)
Resp: > 100 µM

Req: Record request: TGI value, item O=C(NNC1=NCCCN1)c1ccco1
Resp: > 100 µM

Req: Record request: TGI value, item Cn1cc(-c2nc(-c3c[nH]c4ncccc34)cs2)c2ccccc21
Resp: 63.8 µM

Req: Record request: TGI value, item COc1cc2cc(C(=O)N3CC(CCl)c4ccc([N+](=O)[O-])cc43)[nH]c2c(OC)c1OC (stereo not given)
Resp: > 100 µM

Req: Record request: TGI value, item CC(C)CCNC(=O)C(CC(C)C)NC(=O)[C@H]1O[C@@H]1C(=O)O (stereo not given in full)
Resp: > 100 µM

Req: Record request: TGI value, item CN(CC(=O)O)Cc1c(O)c(Cl)cc(Cl)c1Cl
Resp: > 100 µM

Req: Record request: TGI value, item CC(C)CCCC(C)[C@H]1CC[C@H]2n3c(nc4ccccc43)CCC[C@]12C (stereo not given in full)
Resp: 33 µM
